Test Name: Frog in situ single pass intestinal perfusion (SPIP), parallel-tube model
Particulars: Rana tigrina (frog), pH 7.4

| Compound | Papp at 90 min / ×10⁻⁶ cm/s |
| --- | --- |
| Cc1ncc2n1-c1ccc(Cl)cc1C(c1ccccc1F)=NC2 [Midazolam] | 203 |
